The following compounds are shown together with reported inhibition at 100 µM values.
molecular target: SARS-CoV-2 Mac1 (Severe acute respiratory syndrome coronavirus 2, UniProt P0DTD1); test: biochemical; settings: read-out: %inhibition
Counter-ions that a name gives are not always drawn.

Example compounds with recorded inhibition at 100 µM:
>>> value_measured("C[N+](C)(C)CCOC(=O)CCC(=O)OCC[N+](C)(C)C [Succinylcholine Chloride Dihydrate]")
"0%"
>>> value_measured("CCCCCCCCN=c1ccn(CCCCCCCCCCn2ccc(=NCCCCCCCC)cc2)cc1 [Octenidine Dihydrochloride]")
"16%"
>>> value_measured("CC1(C)[C@@H](O[C@H]2O[C@H](C(=O)O)[C@@H](O)[C@H](O)[C@H]2O[C@@H]2O[C@H](C(=O)O)[C@@H](O)[C@H](O)[C@H]2O)CC[C@]2(C)[C@H]3C(=O)C=C4[C@@H]5C[C@@](C)(C(=O)O)CC[C@]5(C)CC[C@@]4(C)[C@]3(C)CC[C@@H]12 [Ammonium Glycyrrhizinate]")
"0%"
>>> value_measured("CCCCC(=O)O[C@]1(C(=O)CO)[C@@H](C)C[C@H]2[C@@H]3CCC4=CC(=O)C=C[C@]4(C)[C@@]3(F)[C@@H](O)C[C@@]21C [Betamethasone Valerate]")
"0%"
>>> value_measured("C[C@]12CC[C@@H]3c4ccc(OC(=O)c5ccccc5)cc4CC[C@H]3[C@@H]1CC[C@@H]2O [Estradiol Benzoate]")
"20.5%"
>>> value_measured("c1ccc(CC2=NCCN2)cc1 [Tolazoline HCl]")
"7.01%"
>>> value_measured("C[C@]12CC[C@@H]3c4ccc(OS(=O)(=O)O)cc4CC[C@H]3[C@@H]1CCC2=O [Estropipate]")
"8.24%"
>>> value_measured("CC(C)CN(C[C@@H](O)[C@H](Cc1ccccc1)NC(=O)O[C@H]1CCOC1)S(=O)(=O)c1ccc(N)cc1")
"0%"

Challenge: For the compound shown here, CCOC(=O)N[C@@H]1CC[C@@H]2[C@@H](C1)C[C@H]1C(=O)O[C@H](C)[C@H]1[C@H]2/C=C/c1ccc(-c2cccc(F)c2)cn1 , give the reported inhibition at 100 µM.
Response given: 0%
